For each entry below, report its Hygroscopic moisture (%) value.
test: Determination of hygroscopic moisture; assay type: physicochemical; settings: 48 h; 25° C. thermostatic drier over saturated ammonium chloride solution; sodium salt
Expressed in %, but write only the number.

[ask] For COCCCOc1ccnc(C[S@@+]([O-])c2nc3ccccc3[n-]2)c1C.[Na+] [Crystal form C] , what is its reported Hygroscopic moisture (%)?
[reply] 0.18

[ask] For COCCCOc1ccnc(C[S@@+]([O-])c2nc3ccccc3[n-]2)c1C.[Na+] [Crystal form A, reference compound] , what is its reported Hygroscopic moisture (%)?
[reply] 5.72

[ask] For COCCCOc1ccnc(C[S@@+]([O-])c2nc3ccccc3[n-]2)c1C.[Na+] [Amorphous form, reference compound] , what is its reported Hygroscopic moisture (%)?
[reply] 21.81

[ask] For COCCCOc1ccnc(C[S@@+]([O-])c2nc3ccccc3[n-]2)c1C.[Na+] [Crystal form B] , what is its reported Hygroscopic moisture (%)?
[reply] 5.75
